# MEASUREMENT_TARGET: UniProtKB P0DTD1
# MEASUREMENT_NOTES: biochemical
MEASUREMENT_NAME: inhibition at 100 µM (%)
Express your answer in %, writing the number without its unit.

O=c1c(O)c(-c2ccc(O)cc2)oc2cc(OC3OC(CO)C(O)C(O)C3O)cc(O)c12 [Compound 16, Kaempferol-7-O-β-D-glucoside] : 23.3
C/C=C1/[C@H](O[C@@H]2O[C@H](CO)[C@@H](O)[C@H](O)[C@H]2O)OC=C(C(=O)OC)[C@H]1CC(=O)OCCc1ccc(O)c(O)c1 : 26.4
C[C@@H]1O[C@@H](O[C@@H]2[C@@H](O)[C@H](OCCc3ccc(O)c(O)c3)O[C@H](COC(=O)/C=C/c3ccc(O)c(O)c3)[C@H]2O)[C@H](O)[C@H](O)[C@H]1O [Compound 15, Iso-Acteoside] : 24.6
O=C1C[C@@H](c2ccc(O)cc2)Oc2cc(O)cc(O)c21 : 97.9
O=C(O)c1cc(O)c2c(c1)[C@@H]([C@H]1c3cc(C(=O)O)cc(O)c3C(=O)c3c(O[C@@H]4O[C@H](CO)[C@@H](O)[C@H](O)[C@H]4O)cccc31)c1cccc(O[C@@H]3O[C@H](CO)[C@@H](O)[C@H](O)[C@H]3O)c1C2=O [Compound 2, Sennoside B] : 78.5

Entry O=C(c1ccc(O)c(O)c1)c1c(O)cc(O)cc1OC1OC(CO)C(O)C(O)C1O (stereo not shown) ; inhibition at 100 µM = 23.2

Entry CC(C)C(=O)NCCC1(O)c2scnc2-c2nccc3c2C1Nc1ccccc1-3 (stereo not shown) ; inhibition at 100 µM = 27

The measured values listed here are drawn from paper PMC8001104.
